protocolDetails: amyloid nucleation score (Sup35N fusion, yeast selection) (log enrichment); library NNK3; higher = more nucleation; inactive = no reads after selection;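 further: zero at mode of non-aggregating sequences after 7 days selection at 30°C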
experimentalReadout: amyloid nucleation score

>  <substance>
LCVSLNCPQFSFYSLQNQPY

>  <reported>
2.71

$$$$
>  <substance>
DRNEQCDSL

>  <reported>
inactive

$$$$
>  <substance>
SDRIDNFAWINFCK

>  <reported>
0.831

$$$$
>  <substance>
DLKTWSMLSFFGMYATYLIK

>  <reported>
inactive

$$$$
>  <substance>
SWWFCVWFQNI

>  <reported>
0.888

$$$$
>  <substance>
RLYVSKEFRSA

>  <reported>
inactive

$$$$
>  <substance>
KQFRVWFCYFL

>  <reported>
0.565

$$$$
>  <substance>
NNTEHS

>  <reported>
inactive

$$$$
>  <substance>
ASLRLLVLVNSMWVGFFFNS

>  <reported>
inactive

$$$$
>  <substance>
GSVNLSVKSW

>  <reported>
inactive

$$$$

---

protocolDetails: amyloid nucleation score (Sup35N fusion, yeast selection) (log enrichment); library NNK3; higher = more nucleation; inactive = no reads after selection

>  <substance>
CITSNVMRSSRLKLV

>  <amyloid nucleation score>
inactive

$$$$
>  <substance>
IWASRS

>  <amyloid nucleation score>
inactive

$$$$
>  <substance>
DRCNVGRYLG

>  <amyloid nucleation score>
inactive

$$$$
>  <substance>
WTMVSGDALTCYTMTTMVRR

>  <amyloid nucleation score>
inactive

$$$$
>  <substance>
FYSFCQSKSLMTFSGDLPPS

>  <amyloid nucleation score>
inactive

$$$$
>  <substance>
TSQGIYHVVCCSSSEFRTLG

>  <amyloid nucleation score>
2.48

$$$$
>  <substance>
SYISQEFYDFCFKPYLGSLY

>  <amyloid nucleation score>
inactive

$$$$
>  <substance>
NPKSSPVVTFWGTGYFSAGV

>  <amyloid nucleation score>
inactive

$$$$
>  <substance>
YSGTRVPR

>  <amyloid nucleation score>
0.471

$$$$
>  <substance>
VYLHIVHCMGYVNDQGRNRS

>  <amyloid nucleation score>
inactive

$$$$
>  <substance>
HFHFLGCDSLGIVVGEWSDH

>  <amyloid nucleation score>
0.94

$$$$
>  <substance>
DVYSYKFDR

>  <amyloid nucleation score>
inactive

$$$$
>  <substance>
ADMCWTNRSETYDGELTVGV

>  <amyloid nucleation score>
inactive

$$$$
>  <substance>
HYQHVFLAFNSVLQSPILRE

>  <amyloid nucleation score>
inactive

$$$$
>  <substance>
LAIILLFAVRLCRDANGDAM

>  <amyloid nucleation score>
inactive

$$$$
>  <substance>
LNQLRSDITGLMSMTWDDLC

>  <amyloid nucleation score>
inactive

$$$$
>  <substance>
YNSFSDYYSVFTQHVRDS

>  <amyloid nucleation score>
inactive

$$$$
>  <substance>
IGFRWY

>  <amyloid nucleation score>
inactive

$$$$
>  <substance>
LREVRTAVSLGQMGRGLQA

>  <amyloid nucleation score>
inactive

$$$$
>  <substance>
VQGLGGNWW

>  <amyloid nucleation score>
inactive

$$$$
>  <substance>
TKWFCVFTLSRNINRFTRL

>  <amyloid nucleation score>
inactive

$$$$
>  <substance>
VTLLPVSVCINAFNLILGPF

>  <amyloid nucleation score>
3.08

$$$$
>  <substance>
LCKQTSTTNLSGV

>  <amyloid nucleation score>
inactive

$$$$
>  <substance>
PYLLAVNRGESSSSVWLMPM

>  <amyloid nucleation score>
inactive

$$$$
>  <substance>
VVRIGSRACGLRRKVCGGFG

>  <amyloid nucleation score>
inactive

$$$$
>  <substance>
QSRMLELS

>  <amyloid nucleation score>
inactive

$$$$
>  <substance>
RVGCVQYQFRRCRGWKSNKA

>  <amyloid nucleation score>
inactive

$$$$
>  <substance>
VTCVVVVGVHVRRHGFQEYV

>  <amyloid nucleation score>
inactive

$$$$
>  <substance>
FSIPCDFDDNFATQELS

>  <amyloid nucleation score>
inactive

$$$$
>  <substance>
SLMDGFLPNSGEFRIKYAVL

>  <amyloid nucleation score>
inactive

$$$$
>  <substance>
YAIAAYFDKRRIVGWVINCS

>  <amyloid nucleation score>
inactive

$$$$
>  <substance>
RYRPHNPDVVN

>  <amyloid nucleation score>
inactive

$$$$
>  <substance>
IVHNYFSFCHYNRGRVGLFI

>  <amyloid nucleation score>
2.64

$$$$
>  <substance>
IAAPRGMTDSRVVMRCLHVN

>  <amyloid nucleation score>
inactive

$$$$
>  <substance>
GDYSWSM

>  <amyloid nucleation score>
0.167

$$$$
>  <substance>
ALFTESF

>  <amyloid nucleation score>
inactive

$$$$
>  <substance>
IYGWGRRFRTRR

>  <amyloid nucleation score>
inactive

$$$$
